- PROTOCOL DETAILS: inhibitors of HIV fusion peptide binding, primary screen, biochemical, uHTS, fluorescence dequenching (AID 1986)
- PROTOCOL CONDITIONS: cell-free peptide binding, 30 min, at 20 µM, hits give high values
The campaign covered roughly 290,000 compounds. About 890 (0.31%) were called active. For the sample, actives were picked, then their nearest neighbours and some compounds at random.
# maps each entry to its inhibition
State the answer as a number, implicitly in %.

Here's what some known entries look like.
Cc1ccc(/C=N/N=C/c2ccc(C)cc2)cc1	0.6
Cc1ccc(/C=[N+](/C)[O-])cc1	-1.3
Cc1ccc(C=C2C(Cl)=C(Cl)C(Cl)=C2Cl)cc1	53.9
Cc1sc2ncnc(SCc3ccc(C(=O)O)cc3)c2c1C	9.5
Cc1ccc(-c2csc3ncnc(SCC(=O)O)c23)cc1	0.9

*Q* Param item = Cc1ccc(N2C(=O)[C@@H]3C(C(=O)CN4C(=O)c5ccccc5C4=O)=NN[C@@H]3C2=O)c(C)c1 ; retrieve measured inhibition.
*A* -2.5

*Q* Param item = S=C(NCCc1ccccc1)NC1CC2CCC(C1)N2Cc1ccccc1 (stereo unspecified) ; retrieve measured inhibition.
*A* -0.5

*Q* Param item = COc1ccc(CNC(=O)Cc2cn(C)c3ccccc23)c(OC)c1 ; retrieve measured inhibition.
*A* 0

*Q* Param item = CCCCn1c(N)c(NCc2ccccc2OC)c(=O)[nH]c1=O ; retrieve measured inhibition.
*A* 2.3

*Q* Param item = COc1ccc(/C=C/C(=O)NC(=S)Nc2ccccc2)cc1OC ; retrieve measured inhibition.
*A* 1.5

*Q* Param item = Cc1ccc(N2C(=O)c3ccc(C(=O)O)cc3C2=O)c(C)c1 ; retrieve measured inhibition.
*A* -0.3
